- Test system: MOLM14;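 also: after 48 h exposure read by CellTiter-Glo luminescence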
- ASSAY METHOD TEXT: cell viability relative to vehicle control; higher = less cytotoxic
- CONDITIONS: 10 µM; SRSF2 genotype: SRSF2 P95H/wt
Counter-ions that a name gives are not always drawn.
Listing: cell viability of selected molecules
MEASUREMENT NAME: cell viability (%)

Nc1[nH]cnc2ncnc1-2 [Adenine hydrochloride] | 105
Cc1cc(/C=C/C#N)cc(C)c1Nc1ccnc(Nc2ccc(C#N)cc2)n1 | 49.6
O=C(O)[C@H]1O[C@@H](Oc2cc3oc(-c4ccc(O)cc4)cc(=O)c3c(O)c2O)[C@H](O)[C@@H](O)[C@@H]1O | 102
Cc1ccc(-n2nc(C(C)(C)C)cc2NC(=O)Nc2ccc(OCCN3CCOCC3)c3ccccc23)cc1 | 81.4
CO[C@H]1O[C@@H]2O[C@@]3(C)CC[C@H]4[C@H](C)CC[C@@H]([C@H]1C)[C@@]24OO3 | 85.6
O=C(Nc1cccc2cccnc12)c1ccc(N2C(=O)C3C4C=CC(C4)C3C2=O)cc1 (stereo not drawn) [IWR-1-endo] | 111
CC1=C(/C=C/C(C)=C/C=C/C(C)=C/C(=O)O)C(C)(C)CCC1 [All-trans Retinoic Acid (Tretinoin)] | 54.2
CCN(CC)c1ccc2cc(-c3nc4ccccc4s3)c(=O)oc2c1 | 108
Cc1ccc(NC(=O)c2ccc(CN3CCN(C)CC3)cc2)cc1Nc1nccc(-c2cccnc2)n1 [Imatinib Mesylate (STI571)] | 80.7
C1N2CN3CN1CN(C2)C3 | 107
